# Ka per entry
- Test summary: Binding affinity to N,N'-Ac2-L-Lys-D-Ala-D-Ala model of cell wall ligand by UV-difference assay
Readout: Ka (×10⁵ /M)

- CN[C@H](CC(C)C)C(=O)N[C@H]1C(=O)N[C@@H](CC(N)=O)C(=O)N[C@H]2C(=O)N[C@H]3C(=O)N[C@H](C(=O)N[C@H](C(=O)O)c4cc(O)cc(O)c4-c4cc3ccc4O)[C@H](O)c3ccc(c(Cl)c3)Oc3cc2cc(c3O[C@@H]2O[C@H](CO)[C@@H](O)[C@H](O)[C@H]2O[C@H]2C[C@](C)(N)[C@H](O)[C@H](C)O2)Oc2ccc(cc2Cl)[C@H]1O: 1.8
- CN[C@H](CC(C)C)C(=O)N[C@H]1C(=O)N[C@@H](CC(N)=O)C(=O)N[C@H]2C(=O)N[C@H]3C(=O)N[C@H](C(=O)N[C@H](C(=O)O)c4cc(O)cc(O)c4-c4cc3ccc4O)[C@H](O)c3ccc(cc3)Oc3cc2cc(c3O)Oc2ccc(cc2)[C@H]1O: 0.18
- CN[C@H](CC(C)C)C(=O)N[C@H]1C(=O)N[C@@H](CC(N)=O)C(=O)N[C@H]2C(=O)N[C@H]3C(=O)N[C@H](C(=O)N[C@H](C(=O)O)c4cc(O)cc(O)c4-c4cc3ccc4O)[C@H](O)c3ccc(c(Cl)c3)Oc3cc2cc(c3O)Oc2ccc(cc2Cl)[C@H]1O: 1.4
- CN[C@H](CC(C)C)C(=O)N[C@H]1C(=O)N[C@@H](CC(N)=O)C(=O)N[C@H]2C(=O)N[C@H]3C(=O)N[C@H](C(=O)N[C@H](C(=O)O)c4cc(O)cc(O)c4-c4cc3ccc4O)[C@H](O)c3ccc(cc3)Oc3cc2cc(c3O)Oc2ccc(cc2Cl)[C@H]1O: 0.38

====

- Tested on: Staphylococcus aureus
- Test summary: Antimicrobial activity against vancomycin-sensitive Staphylococcus aureus ATCC 25923 after 24 hrs
- Format: functional
- Condition description: ATCC 25923, 24 h
Property: MIC; scope: individual molecules
Readout: MIC (µg/mL)

- CN[C@H](CC(C)C)C(=O)N[C@H]1C(=O)N[C@@H](CC(N)=O)C(=O)N[C@H]2C(=O)N[C@H]3C(=O)N[C@H](C(=O)N[C@H](C(=O)O)c4cc(O)cc(O)c4-c4cc3ccc4O)[C@H](O)c3ccc(c(Cl)c3)Oc3cc2cc(c3O[C@@H]2O[C@H](CO)[C@@H](O)[C@H](O)[C@H]2O[C@H]2C[C@](C)(N)[C@H](O)[C@H](C)O2)Oc2ccc(cc2Cl)[C@H]1O [VANCOMYCIN]: 1.25
- CN[C@H](CC(C)C)C(=O)N[C@H]1C(=O)N[C@@H](CC(N)=O)C(=O)N[C@H]2C(=O)N[C@H]3C(=O)N[C@H](C(=O)N[C@H](C(=O)O)c4cc(O)cc(O)c4-c4cc3ccc4O)[C@H](O)c3ccc(c(Cl)c3)Oc3cc2cc(c3O)Oc2ccc(cc2Cl)[C@H]1O [VANCOMYCIN AGLYCON]: 1.25
- CN[C@H](CC(C)C)C(=O)N[C@H]1C(=O)N[C@@H](CC(N)=O)C(=O)N[C@H]2C(=O)N[C@H]3C(=O)N[C@H](C(=O)N[C@H](C(=O)O)c4cc(O)cc(O)c4-c4cc3ccc4O)[C@H](O)c3ccc(cc3)Oc3cc2cc(c3O)Oc2ccc(cc2)[C@H]1O: 20
- CN[C@H](CC(C)C)C(=O)N[C@H]1C(=O)N[C@@H](CC(N)=O)C(=O)N[C@H]2C(=O)N[C@H]3C(=O)N[C@H](C(=O)N[C@H](C(=O)O)c4cc(O)cc(O)c4-c4cc3ccc4O)[C@H](O)c3ccc(cc3)Oc3cc2cc(c3O)Oc2ccc(cc2Cl)[C@H]1O: 10
